This collection of values is drawn from PubChem BioAssay (NCI).

# method: NCI Yeast Anticancer Drug Screen. Data for the cln2 rad14 strain (AID 165);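 further: 0% = growth equal to vehicle treated cultures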
# settings: S. cerevisiae cln2 rad14 strain, at 5.0 µM (retest, dose inferred, filed as 0.5)
This is part of a sample that, as a whole, favours compounds with a hit. Of some 79,000 tested, about 15% had one in any assay. The source made the active and inactive calls. No stated cut-off is given here; in the data, active means growth inhibition above about 70%; inactive means the rest.
Labels: active, inactive

>>> label_value("C[N+](C)(C)CC1CCCC(C[N+](C)(C)C)C1O (stereo not drawn)")
"inactive"
>>> label_value("CC1=NNC(=O)C1(Br)Br")
"inactive"
>>> label_value("COC(=O)C1ON(c2ccccc2)C2c3ccccc3-c3ccccc3C12 (stereo not drawn)")
"inactive"
>>> label_value("C#CC(O)(CC)CC")
"inactive"
>>> label_value("[Cl][Hg][c]1ccco1")
"active"
>>> label_value("O=[N+]([O-])c1cc(Cl)c(Cl)cc1[N+](=O)[O-]")
"inactive"
>>> label_value("C[N+](C)(C)CC1CCCc2ccccc2C1=O (stereo not drawn)")
"inactive"
>>> label_value("C[CH2][Sn]([CH2]C)[O][Sn]([Cl])([CH2]C)[CH2]C")
"inactive"
>>> label_value("CN(C)c1ncnc2c1ncn2C1OC(CO)C2NP(=O)(N(CCCl)CCCl)OC21 (stereo not drawn)")
"inactive"
>>> label_value("[I][Hg][CH2]C1OCCOC1[CH2][Hg][I] (stereo not drawn)")
"inactive"
>>> label_value("CCC[CH2][Sn]1([CH2]CCC)[O]C(=O)c2cccc(OC)c2[O]1")
"active"
>>> label_value("O=C1C(=O)C(Br)(Br)C(Br)=C1Br")
"inactive"
>>> label_value("Clc1ccccc1C#[C][Hg][C]#Cc1ccccc1Cl")
"inactive"

====

Here, each record is paired with measured growth inhibition data.
# method: NCI Yeast Anticancer Drug Screen. Data for the cln2 rad14 strain (AID 165);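 further: 0% = growth equal to vehicle treated cultures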
# settings: S. cerevisiae cln2 rad14 strain, at 5.0 µM (retest, dose inferred, filed as 0.5), hits give high values
The panel holds about 79,000 compounds, 15% with a hit somewhere; the sample as a whole holds those more often.
measured.metric: growth inhibition (%)

>>> result("[Cl][Hg][c]1ccc(Cl)s1")
99
>>> result("CN1C(=O)C23CC4=CC=CC(O)C4N2C(=O)C1(CO)SS3 (stereo unspecified)")
99
>>> result("[Cl][Pt][Cl].c1ccc([AsH](CC[AsH](c2ccccc2)c2ccccc2)c2ccccc2)cc1")
98
>>> result("C=CCc1cc(Cl)ccc1OC(=O)N(C)C")
6
>>> result("CC/C(=C/c1ccc(OC)cc1)[N+](=O)[O-]")
20
>>> result("CC(C)c1cc([N+](=O)[O-])cc([N+](=O)[O-])c1O")
8

====

# growth inhibition annotations
# method: NCI Yeast Anticancer Drug Screen. Data for the bub3 strain (AID 167)
# settings: S. cerevisiae bub3 mutant strain, at 50.0 µM, hits give high values
About 79,000 compounds went through this panel and 15% of them were active in at least one assay; those are over-represented in the sample as a whole.
measured.metric: growth inhibition (%)

>>> result("CC(=O)C1(c2ccccc2)CCNCC1")
-3.9
>>> result("O=Cc1cn(CCCCCCCCCCCCn2cc(C=O)c3ccccc32)c2ccccc12")
7.35
>>> result("CCCCOP(=O)(CCCC)OCCCC.CCCCOP(=O)(CCCC)OCCCC.CCCCOP(=O)(CCCC)OCCCC.CCCCOP(=O)(CCCC)OCCCC.O.O.[Co+2].[O-][Cl+3]([O-])([O-])O")
19.8
>>> result("COc1cc([C@@H]2c3cc4c(c(O)c3C[C@H]3COC(=O)[C@@H]32)OCO4)cc(OC)c1O")
7.2
>>> result("CC1NC1c1ccccc1 (stereo not given)")
-11.8
